- system: CXCR7 (Homo sapiens)
- Sequence (P25106 whole entry): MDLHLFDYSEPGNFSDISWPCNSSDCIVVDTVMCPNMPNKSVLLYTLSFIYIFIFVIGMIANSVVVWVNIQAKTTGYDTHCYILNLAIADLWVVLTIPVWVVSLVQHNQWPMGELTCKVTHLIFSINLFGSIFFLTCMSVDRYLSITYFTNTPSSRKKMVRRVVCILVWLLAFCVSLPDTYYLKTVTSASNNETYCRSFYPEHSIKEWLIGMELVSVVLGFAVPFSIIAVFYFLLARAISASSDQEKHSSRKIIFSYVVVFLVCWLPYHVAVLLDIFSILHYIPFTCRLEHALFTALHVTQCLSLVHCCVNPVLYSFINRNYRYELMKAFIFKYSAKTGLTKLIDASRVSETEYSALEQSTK
- protocol-summary: CXCR7 β-arrestin recruitment assay in CHO-CXCR7 cells (ProLink/EA β-galactosidase complementation), induced by human SDF-1a
- cond: assay buffer, SDF-1a at EC50 concentration
For each of the molecules below, state its IC50.

Example entries and their recorded answers appear below.
1. Cc1cc(C)nc(C(C)(C)NC(=O)CC2(NC(=O)c3cc(-c4ccc(F)cc4F)on3)CN(C3CC(C)OC(C)C3)C2)n1 (stereo not drawn) [Example 1.354]	100 to 1000 nM
2. CC(C)(NC(=O)CC1(NC(=O)c2cc(-c3ccc(F)cc3F)on2)CN(C2CCCCC2(F)F)C1)c1ccccn1 (stereo not drawn) [Example 1.311]	5 to 100 nM

IC50 for CC(C)(NC(=O)CC1(NC(=O)c2cc(-c3ccc(F)cc3F)on2)CN([C@H]2CC[C@@](C)(O)CC2)C1)c1cc(Cl)cc(Cl)c1 [Example 1.086] is < 5 nM
